All values here come from patent US10822311B2.

Molecular target: human P2X3 receptor (homomeric P2X3 channels) (Homo sapiens, UniProt P56373)
Construct: expressed in transfected cells; host or cells: HEK293 human embryonic kidney cells (HEK-hP2X3)
Sequence (P56373 1-397): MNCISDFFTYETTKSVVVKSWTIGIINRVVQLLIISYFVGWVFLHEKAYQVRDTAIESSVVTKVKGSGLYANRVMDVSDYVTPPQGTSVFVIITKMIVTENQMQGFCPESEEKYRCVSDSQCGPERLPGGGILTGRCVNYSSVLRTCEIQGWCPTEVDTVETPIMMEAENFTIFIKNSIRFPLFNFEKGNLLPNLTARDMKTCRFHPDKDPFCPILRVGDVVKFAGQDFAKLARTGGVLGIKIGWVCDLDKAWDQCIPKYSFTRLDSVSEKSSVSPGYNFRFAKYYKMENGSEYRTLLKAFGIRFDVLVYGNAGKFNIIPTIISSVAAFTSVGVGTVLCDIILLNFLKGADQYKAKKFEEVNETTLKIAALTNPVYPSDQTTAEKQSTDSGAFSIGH
Experiment: FlexStation calcium fluorescence assay, homomeric P2X3 channels in HEK293 cells
Type: cell-based
Conditions: HEK293 cells, hP2X3; agonist 1 μM α,β-meATP; read-out: Average pIC50 P2X3 (converted)
Binary call on IC50 with cut-off 100 nM: strictly below means T, and equality or higher means F.

Please review the entries below; each comes with its answer.
>>> assignedclass("COc1cc(Oc2cnc(N)nc2N)c(C(C)C)nc1OC")
"T"
>>> assignedclass("COc1cc(C(C)C)c(Sc2cnc(N)nc2N)cc1S(N)(=O)=O")
"F"
>>> assignedclass("COc1cc(Oc2cnc(N)nc2NC2CCN(C)CC2)c(C(C)C)cc1OC")
"F"

stdin: Identify whether the molecule "COc1cc(Oc2cnc(NC(CO)CO)nc2N)c(C(C)C)cc1OC" records IC50 below 100 nM.
stdout: F

stdin: Identify whether the molecule "COc1cc(Oc2cnc(N)nc2NCCO)c(C(C)C)cc1OC" records IC50 below 100 nM.
stdout: F
